The following binders are listed with their measured pKd values.
# ASSAYED_TARGET: MPV fusion glycoprotein with the D280N mutation (MPV-F N280) (metapneumovirus)
# PROCEDURE_TEXT: SPR; F protein loaded on streptavidin sensors, mAb in solution
pKd field: float, defined as -log10 of concentration (mol/L).

The examples below pair each entry with its known result.
* MPK142-v2 (antibody, V domains shown) VH: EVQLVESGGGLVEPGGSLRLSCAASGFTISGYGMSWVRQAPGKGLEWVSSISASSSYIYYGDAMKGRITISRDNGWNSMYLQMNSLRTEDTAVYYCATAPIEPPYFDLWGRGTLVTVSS VL: DIQLTQTPTSLSASVGDRVTFTCRASQNIGFYLNWYQQKPGKAPRLLIYGASNLQSGVPSRFSGSGAGTDFSLTISSLQPEDFATYYCQQSFNTPRTFGQGTKVEIN | 9.70
* MPK158 (antibody, V domains shown) VH: EVQLVESGGGLVKPGGSLRLSCAASGFSISGFYMIWIRQAPGKGLEWISDISASSSYIDYADSVKGRFTISRDNGQNTVHLLMNNLRADDTGVYYCAREQTPSPGPFDLWGQGTLVTVST VL: QPVLTQPPSVSGAPGQRVTISCTGRSSNIGAGYDVHWYQHLPGTSPKLLIYRNSNRPSGVPDRFSGSTSGTSASLAITGLQADDEADYYCQAYDRILGGWAFGGGTKLTVL | 9.54

Give its pKd value. Item: MPK151 (antibody, V domains shown) VH: EVQLVESGGGLVKPGGSLRLSCAASGLTISGYYMIWIRQAPGKGLEWISDISASSTYTDYAESVKGRFSISRDNGQNTVYLQMNSLRAEDTAVYYCATEQTPSPGPFDLWGQGTLVTVSS VL: QSVLTQPPSVSGAPGQKITISCTGGSSNFGAGYDVHWYQQFPGTSPKLLIYRNTFRPSGVPDRFSGSKSGTSASLAITGLQAEDEADYYCQSYDRSLSGWVFGGGTKLTVL
9.57

Give its pKd value. Item: MPK133 (antibody, V domains shown) VH: QVQLVQSGGGLVKPGGSLRLSCAASEFSFSGYFMIWIRQAPGKGLEWISYISGSSTYTNYADSVKGRFTISRDNAQNTLYLEMNSLRAEDTGVYYCATEQVPSPGPFDLWGQGTLVTVSS VL: QSVLTQPPSVSGAPGQRVTISCTGSSSNIGAGYDVHWYQQFPGRSPTLLIYRNTNRPSGVPDRFSGSQSGSSASLAITGLQAEDEADYYCQSYDRTLSGWAFGGGTKVTVL
8.43
